- Test target: VAD (vanillyl-alcohol dehydrogenase from Marinicaulis flavus) (Hyphococcus luteus, UniProt A0A2S7K3M2, P151L)
- Construct: SUMO tag cleaved for crystals; covalent FAD on H387; dimer
- Sequence (A0A2S7K3M2 entry or part of it P151L): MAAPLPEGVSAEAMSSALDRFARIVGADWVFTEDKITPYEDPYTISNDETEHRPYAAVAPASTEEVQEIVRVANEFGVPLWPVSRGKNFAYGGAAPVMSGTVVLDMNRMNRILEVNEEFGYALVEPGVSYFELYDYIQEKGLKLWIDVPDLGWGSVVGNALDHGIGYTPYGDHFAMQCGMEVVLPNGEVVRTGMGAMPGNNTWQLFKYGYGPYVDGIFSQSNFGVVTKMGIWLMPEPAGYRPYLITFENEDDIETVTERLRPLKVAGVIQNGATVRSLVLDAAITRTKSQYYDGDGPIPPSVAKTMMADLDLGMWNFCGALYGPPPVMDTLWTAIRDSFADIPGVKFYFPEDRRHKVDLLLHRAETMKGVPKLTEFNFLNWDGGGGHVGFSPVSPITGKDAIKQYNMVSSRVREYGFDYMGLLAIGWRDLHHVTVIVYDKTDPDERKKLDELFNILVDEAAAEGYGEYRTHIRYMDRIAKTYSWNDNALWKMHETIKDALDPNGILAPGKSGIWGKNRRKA
- Assay info: anaerobic stopped-flow reductive half-reaction
- Recorded conditions: 25 °C, 50 mM potassium phosphate pH 7.5, 150 mM NaCl, oxidized enzyme
Measurement kind: Kd (µM)
State the answer as a number, implicitly in µM.

// Kd lookup, key: COc1cc(CO)ccc1O
1060
